Where these numbers come from: PubChem BioAssay (NCI)

System: MOLT-4 leukemia
Assay: NCI-60 one-dose screen, 48 h
Run Conditions: 10 µM unless noted
Compounds without any hit were thinned out: in the full panel of roughly 83,000, 20% have a hit. Activity calls are given as the source filed them. How the source made its calls: active means growth percent below 10; inactive means the rest.
Labels: 1 = active, -1 = inactive

Compound	Label Value
C[C@]12CCC(=O)C[C@H]1CC[C@@H]1[C@@H]2CC[C@@]2(C)[C@H]1CC[C@]2(O)C(=O)CO	-1
O[C@H]1CO[C@H]2[C@@H]1OC[C@@H]2Oc1ccc(Nc2nc(Nc3ccc(F)c(Cl)c3)ncc2F)cc1Cl	-1
O=C1C=CC(=Nc2cc(Br)c(O)c(Br)c2)C=C1	1
Fc1ccc(Nc2nc(Nc3ccc(-c4nc5ccccc5[nH]4)cc3)c3cn[nH]c3n2)cc1	-1
CN(C)c1ccc(/C=C/c2c(F)cccc2F)cc1	-1
O=S(=O)(NCCNc1cc(-c2c(-c3cccc(O)c3)nc3sccn23)ccn1)c1ccc(Br)cc1	-1
CN=C1C=CC(=C(c2ccc(N(C)C)cc2)c2ccc(N(C)C)cc2)C=C1	1
COc1cccc(CCC2CCCN(c3cc(C)nc(N)n3)C2)c1 (stereo not drawn)	-1

* * *

System: A498 renal
Assay: NCI-60 one-dose screen, 48 h
Run Conditions: 10 µM unless noted
This is part of a sample that, as a whole, favours compounds with a hit. Of some 83,000 tested, about 20% had one in any assay. Active and inactive are the calls of the source. Rule for the calls: active = growth percent below 10; inactive = the rest.
Labels: active, inactive

Smiles Text	Label Value
COc1cc(/C=C/C(=O)c2cccc(-n3cc(-c4ccccc4)[nH]c3=O)c2)cc(OC)c1OC	inactive
COc1cc(-c2ccc(N=Nc3c(O)c(C(=O)Nc4ccccc4OC)cc4ccccc34)c(OC)c2)ccc1N=Nc1c(O)c(C(=O)Nc2ccccc2OC)cc2ccccc12	inactive
CCCCN(Cc1ccc(C(=O)NO)cc1)C(=O)Nc1ccc(OCCCCCCCCCn2cc(CCCCC(=O)N[C@H](C(=O)N3C[C@H](O)C[C@H]3C(=O)NCc3ccc(-c4scnc4C)cc3)C(C)(C)C)nn2)cc1	inactive
C[C@H]1[C@H](C)CC[C@]2(C(=O)N3CCN(C)CC3)CC[C@]3(C)C(=CC[C@@H]4[C@@]5(C)C/C(=C/c6cccnc6)C(=O)C(C)(C)[C@@H]5CC[C@]43C)[C@H]12	active
CC(=O)C(C(C)=O)c1nc2sc3cc(Cl)ccc3n2c(=N)c1C#N	inactive
N#Cc1cnn2c(-c3ccc(Cl)cc3)nc(NC3CC3)nc12	inactive
COc1cc(C(=O)/C=C/c2c(-c3ccc(F)cc3)nc3ncccn23)cc(OC)c1OC	inactive
CN(C)c1ccc2cc(-c3ccc(Cl)c(Cl)c3)c(N)nc2c1	inactive
N#Cc1c(Oc2ccc([N+](=O)[O-])cc2)nc2sc3cc(Cl)ccc3n2c1=N	inactive
CNC(=O)c1cc(Oc2ccc3nc(Nc4cc(Cl)cc(Cl)c4)ccc3c2)ccn1	inactive
CCOC(=O)c1c(C)[nH]c(C(=O)CCC(=O)OC)c1C	inactive
COc1ccc(O)c(-c2cc(-c3ccccc3)c(C#N)c(=O)[nH]2)c1	inactive
Oc1[nH]c2ccccc2c1/C=c1/cc2c(c(-c3ccc(F)cc3)n1)=Nc1ccccc1-2	active
CN(C)CCn1cc(-c2ccc3c(Nc4ccc(CC(=O)Nc5cccc(F)c5)cc4)ncnc3c2)cn1	inactive
CNC(=O)c1cc(Oc2ccc3nc(NC(=O)Nc4cc(C(F)(F)F)cc(C(F)(F)F)c4)sc3c2)ccn1	active
Cc1nc(Nc2ccc(N)cc2)c2ccccc2n1	inactive
C[C@H]1[C@H]2C3=CC[C@@H]4[C@@]5(C)C/C(=C/c6ccncc6)C(=O)C(C)(C)[C@@H]5CC[C@@]4(C)[C@]3(C)CC[C@@]2(C(=O)N2CCN(C)CC2)CC[C@@H]1C	inactive

* * *

Test system: UACC-257 melanoma
Assay: NCI-60 one-dose screen, 48 h
Run Conditions: 10 µM unless noted
About 83,000 compounds went through this panel and 20% of them were active in at least one assay; those are over-represented in the sample as a whole. Calls of active or inactive are those of the source. The calls were made as follows: active = growth percent below 10; inactive = the rest.
Labels: class 1 for active, class 0 for inactive

Molecule	Tested System	Label Value
COc1ccc(/C=C2\COc3ccc(O)cc3C2=O)c(OC)c1	UACC-257 melanoma	class 0
O=C(Nc1cccc2[nH]c(C(F)(F)F)nc12)c1cc(Cl)ccc1Cl	UACC-257 melanoma	class 0
CCCCCCCSc1ccc(C(=O)O)cc1	UACC-257 melanoma	class 0
CC(=O)c1cc2c(o1)C(=O)c1ccccc1C2=O	UACC-257 melanoma	class 1
COc1cc(-c2ccc(-c3ccc(C(=N)N)nc3)s2)cc(OC)c1OC	UACC-257 melanoma	class 0
N#C/C(=C\c1ccc(Br)cc1)n1nnc2cc(Cl)c(Cl)cc21	UACC-257 melanoma	class 0
COc1cccc(CCC2CCCN(c3cc(C)nc(N)n3)C2)c1 (centres undefined)	UACC-257 melanoma	class 0
O=S(=O)(NCCNc1cc(-c2c(-c3cccc(O)c3)nc3sccn23)ccn1)c1ccc(Cl)cc1	UACC-257 melanoma	class 0
CN(C)CCOC(=O)Nc1ccc(Cl)cc1	UACC-257 melanoma	class 0
COc1cc2c(cc1OC)-c1ccc3cc4c(cc3c1N(CCN1CCCC1)C2)OCO4	UACC-257 melanoma	class 0
N=C(N)c1ccc(-c2ccc(/C=C/c3ccccc3)s2)cc1	UACC-257 melanoma	class 0
COc1ccc(OC)c(Nc2nc3nonc3nc2Nc2cccc(Br)c2)c1	UACC-257 melanoma	class 1
OCCCCc1nccc2c1[nH]c1ccccc12	UACC-257 melanoma	class 0
O=C(c1ccccc1)c1ccc(N2C(=O)C3C4c5ccccc5C(/C=C/C(=O)c5ccccn5)(c5ccccc54)C3C2=O)cc1 (centres undefined)	UACC-257 melanoma	class 0
Cn1ccnc1C(=O)/C=C/c1ccc(C(=O)Nc2ccc(S(F)(F)(F)(F)F)cc2)cc1	UACC-257 melanoma	class 0
C=C1C(=O)O[C@H]2[C@H]1CC/C(COC(=O)/C=C\C(=O)NCc1ccc(Cn3c(=O)sn(-c4ccc(OC)cc4)c3=O)cc1)=C\CC[C@@]1(C)O[C@@H]21	UACC-257 melanoma	class 1
CC(C)c1ccc(NC(=O)Cc2ccc(Nc3ncnc4cc(-c5cnn(CCN(C)C)c5)ccc34)cc2)cc1	UACC-257 melanoma	class 0
CN(CCC(=O)/C(=C\c1ccccc1)c1ccc(Cl)cc1)Cc1ccccc1	UACC-257 melanoma	class 0
CCc1nc2ccccc2[nH]1	UACC-257 melanoma	class 0
COc1cc2c(cc1OC)-c1ccc3cc4c(cc3c1N(CCCn1ccnc1)C2)OCO4	UACC-257 melanoma	class 0
Cc1nc(C)c(-c2nn3c(-c4cccc(F)c4)nnc3s2)s1	UACC-257 melanoma	class 0
COc1ccc(NC(=O)c2cccc(-c3cc(=O)c4c(O)c(OC)c(OC)cc4o3)c2)cc1	UACC-257 melanoma	class 0
COC(=O)CCCNC(=O)C(=O)c1c(O)c(O)c(C(C)C)c2cc(C)c(-c3c(C)cc4c(C(C)C)c(O)c(O)c(C(=O)C(=O)NCCCC(=O)OC)c4c3O)c(O)c12	UACC-257 melanoma	class 1
NC(=Nc1ccc(N)cc1)C(N)=Nc1ccc(N)cc1	UACC-257 melanoma	class 0
CCOc1ccc2nc(-c3cccc(OCC(=O)NC(C)C)c3)nc(Nc3ccc(-c4cn[nH]c4)cc3)c2c1	UACC-257 melanoma	class 1
C=C(CNCCc1ccc(O)cc1)[C@@H]1CC[C@]2(COC3CCCCO3)CC[C@]3(C)[C@H](CC[C@@H]4[C@@]5(C)CCC(NCCO)C(C)(C)[C@@H]5CC[C@]43C)[C@@H]12 (some centres undefined)	UACC-257 melanoma	class 1
CC(=O)NCC(=O)Nc1ccc(-c2nnc3ccccn23)nc1.CC(=O)NCC(=O)Nc1ccc(-c2nnc3ccccn23)nc1.[Pt+2]	UACC-257 melanoma	class 0
N#C/C(=C\c1ccc(Br)cc1)n1nnc2ccccc21	UACC-257 melanoma	class 0
CCCCCCCC/C=C/CCCCCCCC1=NCC[N+]1(CCO)CCO	UACC-257 melanoma	class 0

* * *

System: SN12C renal
Assay: NCI-60 one-dose screen, 48 h (100 = growth as untreated, 0 = no growth, -100 = all killed)
Run Conditions: 10 µM unless noted
This is part of a sample that, as a whole, favours compounds with a hit. Of some 83,000 tested, about 20% had one in any assay.
The recorded growth of each item maps onto one of these classes: low value = under 30%, medium value = from 30% up to 90%, high value = 90% and over

Compound	Label Value
CCN(CC)CC(=O)Nc1cccc(C(=O)OC(C)C)c1	high value
O=C1/C(=C/c2ccccc2[N+](=O)[O-])COc2ccc(O)c(O)c21	low value
COc1ccc(-c2cc(-c3ccc(Nc4nc(Nc5ccccc5)nc(Nc5ccc(Cl)cc5)n4)cc3)nc(N)n2)cc1	medium value
O=C(Nc1ccc(N2CCCCC2)c(Cl)c1)c1ccc(Br)o1	medium value
O=C1N/C(=N/O)S/C1=C/c1cn(-c2ccccc2)nc1-c1ccccc1	high value
O=C1C2=C(CCN(Cc3ccccc3)C2)N2CCN=C2N1Cc1ccc(F)cc1F	low value
O=C1CSC(c2ccc(O)cc2)N1c1nnc(Cn2cnnc2)o1 (stereo not drawn)	medium value
Cc1cc(Cc2cc(C)cc(C(C)(C)C)c2O)c(O)c(C(C)(C)C)c1	low value
O=C1Nc2ccccc2SC1C1SC(=S)N(Cc2ccccc2)C1=O (stereo not drawn)	high value
COc1ccc(C(=O)/C=C/C23c4ccccc4C(c4ccccc42)C2C(=O)NC(=O)C23)cc1 (stereo not drawn)	medium value
Clc1ccc2[nH]c3c(NCCCN4CCOCC4)ncnc3c2c1	medium value
CCOC(=O)C(O)C(O)(c1ccccc1)c1ccccc1 (stereo not drawn)	high value
O=C(CCl)N1c2cccc3cccc(c23)N(C(=O)CCl)C1c1cn(-c2ccccc2)nc1-c1cccc([N+](=O)[O-])c1	high value
Cl.Fc1c[c-]c(-c2ccccn2)c(F)c1.[Pt].c1ccc(P(c2ccccc2)C([PH+](c2ccccc2)c2ccccc2)[PH+](c2ccccc2)c2ccccc2)cc1	low value
COc1cc2c(cc1OC)-c1ccc3cc4c(cc3c1N(CCN1CCCC1)C2)OCO4	low value
C=C1C(=O)O[C@H]2[C@H]1CC/C(COC(=O)/C=C\C(=O)NCc1ccc(Cn3c(=O)sn(-c4ccc(Cl)cc4)c3=O)cc1)=C\CC[C@@]1(C)O[C@@H]21	low value
O=C1/C(=C/c2ccc([N+](=O)[O-])cc2)COc2ccc(O)c(O)c21	low value
